assay target: Human immunodeficiency virus type 1 reverse transcriptase (Human immunodeficiency virus 1, UniProt Q72547, K103N/Y181C)
protocol description: Inhibition of HIV1 reverse transcriptase K103N/Y181C double mutant by SPA heteropolymeric assay
pIC50: −log10 of the molar value.
In this section, each of the compounds is paired with its reported pIC50.
readout kind: pIC50

In [3]: df
Out[3]:
                                   compound  readout_kind  relation_operator  recorded_result
0  Cc1cc(C#N)cc(C)c1Oc1nc(NC2CCN(Cc3ccc(S(C)(=O)=O)cc3Cl)CC2)ncc1Br         pIC50                  =             7.55
1  Cc1cc(C#N)cc(C)c1Oc1nc(NC2CCN(c3ccccc3)CC2)ncc1Br         pIC50                  =             6.95
2  Cc1cc(C#N)cc(C)c1Oc1nc(NC2CCN(Cc3ccc(S(N)(=O)=O)cc3Cl)CC2)ncc1Br         pIC50                  =             7.68
3  Cc1cc(C#N)cc(C)c1Oc1nc(NC2CCN(Cc3ccc(C(N)=O)cc3Cl)CC2)ncc1Br         pIC50                  =             7.16
4  Cc1cc(C#N)cc(C)c1Oc1nc(NC2CCN(Cc3cccc(Cl)c3)CC2)ncc1Br         pIC50                  =             6.64
5  Cc1cc(C#N)cc(C)c1Oc1nc(NC2CCN(c3ccccc3)C2)ncc1Br (stereo not given)         pIC50                  <             6.00
6  Cc1cc(C#N)cc(C)c1Oc1ccnc(NC2CCN(Cc3ccc(S(C)(=O)=O)cc3)CC2)n1         pIC50                  =             7.30
7  Cc1cc(C#N)cc(C)c1Oc1ccnc(NC2CCN(Cc3ccc(S(N)(=O)=O)cc3Cl)CC2)n1         pIC50                  =             7.60
8  Cc1cc(C#N)cc(C)c1Oc1nc(NC2CCN(Cc3ccc(C#N)cc3)CC2)ncc1Br         pIC50                  =             7.74
9  Cc1cc(C#N)cc(C)c1Oc1nc(NC2CCN(Cc3ccc(C#N)cc3Cl)CC2)ncc1Br         pIC50                  =             6.80
